Consider the following compounds; for each one, report its MIC.
# Test system: Staphylococcus aureus
# Assay Procedure: Antimicrobial activity against Staphylococcus aureus ATCC 6538p
# Type: functional
State just the number; it will be interpreted in µg/mL.

Exam item: If you can, please state the reported MIC value of c1ccc2cc(C3NCCc4c3[nH]c3ccccc43)ccc2c1 (configuration not stated) .
Marked response: 12.5

Exam item: If you can, please state the reported MIC value of Oc1ccc2[nH]c3c(c2c1)CCNC3c1ccccc1 (configuration not stated) .
Marked response: 100

Exam item: If you can, please state the reported MIC value of COc1ccc(C2NCCc3c2[nH]c2ccccc32)cc1 (configuration not stated) .
Marked response: 12.5

Exam item: If you can, please state the reported MIC value of CC1(C)S[C@@H]2[C@H](NC(=O)[C@H](N)c3ccccc3)C(=O)N2[C@H]1C(=O)O .
Marked response: 1.56

Exam item: If you can, please state the reported MIC value of COc1cccc(C2NCCc3c2[nH]c2ccccc32)c1 (configuration not stated) .
Marked response: 6.25

====

Consider the following molecules; for each one, report its IC50.

Exam item: // lookup IC50 | system=Isocitrate lyase (Candida albicans) | key= O=C(Nc1ccccc1)C(=O)c1c[nH]c2ccc(O)cc12
Marked response: > 357 µM

Exam item: // lookup IC50 | system=Isocitrate lyase (Candida albicans) | key= O=C(O)C(=O)c1c[nH]c2ccc(O)cc12
Marked response: > 487 µM

Exam item: // lookup IC50 | system=Isocitrate lyase (Candida albicans) | key= COc1ccc(C2NCCc3c2[nH]c2ccccc32)cc1 (stereo unspecified)
Marked response: 180 µM

Exam item: // lookup IC50 | system=Isocitrate lyase (Candida albicans) | key= COc1ccc2[nH]c3c(c2c1)CCNC3C(=O)O (stereo unspecified)
Marked response: > 406 µM

Exam item: // lookup IC50 | system=Isocitrate lyase (Candida albicans) | key= c1ccc(C2NCCc3c2[nH]c2ccccc32)cc1 (stereo unspecified)
Marked response: > 403 µM

Exam item: // lookup IC50 | system=Isocitrate lyase (Candida albicans) | key= Oc1ccc2[nH]c3c(c2c1)CCNC3c1ccccc1 (stereo unspecified)
Marked response: > 378 µM

Exam item: // lookup IC50 | system=Isocitrate lyase (Candida albicans) | key= COc1ccc2[nH]c3c(c2c1)CCN=C3c1ccccc1
Marked response: > 362 µM

Exam item: // lookup IC50 | system=Isocitrate lyase (Candida albicans) | key= O=C(O)C1NCCc2c1[nH]c1ccc(O)cc21 (stereo unspecified)
Marked response: > 431 µM

Exam item: // lookup IC50 | system=Isocitrate lyase (Candida albicans) | key= c1ccc2cc(C3NCCc4c3[nH]c3ccccc43)ccc2c1 (stereo unspecified)
Marked response: 137 µM

Exam item: // lookup IC50 | system=Isocitrate lyase (Candida albicans) | key= CCCCCC1NCCc2c1[nH]c1ccc(OC)cc21 (stereo unspecified)
Marked response: > 367 µM

Exam item: // lookup IC50 | system=Isocitrate lyase (Candida albicans) | key= Cc1[nH]c2ccccc2c1C(=O)C(=O)O
Marked response: > 492 µM

====

Measured Metric: IC50

Exam item: // lookup IC50 | system=UniProtKB Q9S446 | key= COc1ccc2[nH]cc(C(=O)C(=O)O)c2c1
Marked response: > 456 µM

Exam item: // lookup IC50 | system=UniProtKB Q9S446 | key= O=C(O)C1NCCc2c1[nH]c1ccccc21 (stereo unspecified)
Marked response: > 462 µM

Exam item: // lookup IC50 | system=UniProtKB Q9S446 | key= O=C(C(=O)c1c[nH]c2ccc(O)cc12)c1c[nH]c2ccc(O)cc12
Marked response: > 312 µM

Exam item: // lookup IC50 | system=UniProtKB Q9S446 | key= c1ccc2cc(C3NCCc4c3[nH]c3ccccc43)ccc2c1 (stereo unspecified)
Marked response: > 335 µM

Exam item: // lookup IC50 | system=UniProtKB Q9S446 | key= O=Cc1c[nH]c2ccc(O)cc12
Marked response: > 621 µM

Exam item: // lookup IC50 | system=UniProtKB Q9S446 | key= COc1cccc(C2NCCc3c2[nH]c2ccccc32)c1 (stereo unspecified)
Marked response: > 359 µM

Exam item: // lookup IC50 | system=UniProtKB Q9S446 | key= COC(=O)c1c[nH]c2ccc(O)cc12
Marked response: > 523 µM

Exam item: // lookup IC50 | system=UniProtKB Q9S446 | key= O=C(O)C(=O)c1c[nH]c2ccc(O)cc12
Marked response: > 487 µM

Exam item: // lookup IC50 | system=UniProtKB Q9S446 | key= CCCCCC1NCCc2c1[nH]c1ccc(OC)cc21 (stereo unspecified)
Marked response: > 367 µM

Exam item: // lookup IC50 | system=UniProtKB Q9S446 | key= NCCc1c[nH]c2ccc(O)cc12
Marked response: > 567 µM

Exam item: // lookup IC50 | system=UniProtKB Q9S446 | key= O=C(Nc1ccccc1)C(=O)c1c[nH]c2ccccc12
Marked response: 174 µM
